DC50 for assorted molecules
# Test system: PTPN2
# assay-name: HiBiT-Degradation B16F10.4 PTPN2
# Type: cell-based
# settings: B16F10.4 cells, 24.0 hours

Reference set, count: 3
molecule | DC50
O=C(CN1CCC(n2cc(CNc3cccc4c3C(=O)N(C3CCC(=O)NC3=O)C4=O)nn2)CC1)NCCOc1ccc2cc(O)c(N3CC(=O)NS3(=O)=O)c(F)c2c1 (stereo not drawn) [Example 40] | ≥ 1000 nM
Cn1c(=O)n(C2CCC(=O)NC2=O)c2ccc(N3CCC(CC(=O)N4CCC(c5ccc6cc(O)c(N7CC(=O)NS7(=O)=O)c(F)c6c5)CC4)CC3)cc21 (stereo not drawn) [Example 124] | 200 to 1000 nM
O=C(CN1CCC(c2ccc3c(c2)oc(=O)n3C2CCC(=O)NC2=O)CC1)NCCOc1ccc2cc(O)c(N3CC(=O)NS3(=O)=O)c(F)c2c1 (stereo not drawn) [Example 5] | ≥ 1000 nM

Given item CC(C)n1c(=O)n(C2CCC(=O)NC2=O)c2ccc(C3CCN(CC(=O)Nc4ccc5c(F)c(N6CC(=O)NS6(=O)=O)c(O)cc5c4)CC3)cc21 (stereo not drawn) [Example 24] , the value recorded as its DC50 is 50 to 200 nM

Given item O=C(CCC1CCN(C(=O)CNc2cccc3c2C(=O)N(C2CCC(=O)NC2=O)C3=O)CC1)NCCOc1ccc2cc(O)c(N3CC(=O)NS3(=O)=O)c(F)c2c1 (stereo not drawn) [Example 41] , the value recorded as its DC50 is ≥ 1000 nM

Given item O=C1CCC(N2Cc3cc(NCc4cn(CCC(=O)Nc5ccc6c(F)c(N7CC(=O)NS7(=O)=O)c(O)cc6c5)nn4)ccc3C2=O)C(=O)N1 (stereo not drawn) [Example 15] , the value recorded as its DC50 is 200 to 1000 nM

----------
DC50 for assorted compounds
# assay-target: PTPN2 (Homo sapiens)
# Construct: expressed in transfected cells; host or cells: 293T (293T.109 HiBiT-PTPN2 line; parental 293T WT from ATCC)
# Sequence (P17706 whole entry, species assumed): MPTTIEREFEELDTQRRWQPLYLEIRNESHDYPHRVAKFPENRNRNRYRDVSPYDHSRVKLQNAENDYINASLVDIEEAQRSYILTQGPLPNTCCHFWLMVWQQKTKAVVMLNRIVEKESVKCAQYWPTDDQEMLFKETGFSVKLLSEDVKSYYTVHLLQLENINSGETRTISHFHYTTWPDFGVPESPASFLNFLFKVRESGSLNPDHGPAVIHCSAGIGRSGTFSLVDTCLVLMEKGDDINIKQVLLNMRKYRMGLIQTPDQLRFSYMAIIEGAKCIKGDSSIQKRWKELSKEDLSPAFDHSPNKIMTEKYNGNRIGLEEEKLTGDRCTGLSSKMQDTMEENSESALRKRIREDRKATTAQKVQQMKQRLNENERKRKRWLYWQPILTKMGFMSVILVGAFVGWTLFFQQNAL
# assay-name: HiBiT-Degradation 293T.109 PTPN2 (Nano-Glo HiBiT Lytic Assay)
# Type: cell-based
# settings: 293T.109 (HiBiT-PTPN2) cells, 24.0 hours

Lab note: compound Cn1c(=O)n(C2CCC(=O)NC2=O)c2ccc(N3CCC(CCNC(=O)Nc4ccc5c(F)c(N6CC(=O)NS6(=O)=O)c(O)cc5c4)CC3)cc21 (centres unmarked) tested on PTPN2 (Homo sapiens); recorded DC50 was 10 to 50 nM

Lab note: compound Cn1c(=O)n(C2CCC(=O)NC2=O)c2ccc(C3CCN(CC(=O)N4CC[C@@H](COc5ccc6cc(O)c(N7CC(=O)NS7(=O)=O)c(F)c6c5)C4)CC3)cc21 (some centres unmarked) tested on PTPN2 (Homo sapiens); recorded DC50 was 10 to 50 nM

Lab note: compound O=C1CCC(N2C(=O)c3cccc(NCc4cccc(C(=O)Nc5ccc6c(F)c(N7CC(=O)NS7(=O)=O)c(O)cc6c5)c4)c3C2=O)C(=O)N1 (centres unmarked) tested on PTPN2 (Homo sapiens); recorded DC50 was 200 to 1000 nM

Lab note: compound CC(C)n1c(=O)n(C2CCC(=O)NC2=O)c2ccc(C3CCN(CC(=O)Nc4ccc5c(F)c(N6CC(=O)NS6(=O)=O)c(O)cc5c4)CC3)cc21 (centres unmarked) tested on PTPN2 (Homo sapiens); recorded DC50 was 50 to 200 nM

Lab note: compound Cn1c(=O)n(C2CCC(=O)NC2=O)c2ccc(-c3ccc(CC(=O)Nc4ccc5c(F)c(N6CC(=O)NS6(=O)=O)c(O)cc5c4)nc3)cc21 (centres unmarked) tested on PTPN2 (Homo sapiens); recorded DC50 was 10 to 50 nM

Lab note: compound Cn1c(=O)n(C2CCC(=O)NC2=O)c2ccc(-c3ccc(NC(=O)NCCOc4ccc5cc(O)c(N6CC(=O)NS6(=O)=O)c(F)c5c4)cc3)cc21 (centres unmarked) tested on PTPN2 (Homo sapiens); recorded DC50 was 50 to 200 nM

Lab note: compound O=C1CCC(N2Cc3c(NCc4cnn(CCC(=O)Nc5ccc6c(F)c(N7CC(=O)NS7(=O)=O)c(O)cc6c5)c4)cccc3C2=O)C(=O)N1 (centres unmarked) tested on PTPN2 (Homo sapiens); recorded DC50 was 50 to 200 nM

Lab note: compound O=C1CCC(n2c(=O)oc3cc(C4CCN(CC(=O)Nc5ccc6c(F)c(N7CC(=O)NS7(=O)=O)c(O)cc6c5)CC4)ccc32)C(=O)N1 (centres unmarked) tested on PTPN2 (Homo sapiens); recorded DC50 was 10 to 50 nM

Lab note: compound Cn1c(=O)n(C2CCC(=O)NC2=O)c2ccc([C@H]3CC[C@@H](CC(=O)Nc4ccc5c(F)c(N6CC(=O)NS6(=O)=O)c(O)cc5c4)CC3)cc21 (single isomer, unassigned) [Example 81a] tested on PTPN2 (Homo sapiens); recorded DC50 was 10 to 50 nM

Lab note: compound Cn1c(=O)n(C2CCC(=O)NC2=O)c2ccc(C3CCN(CC(=O)NCCOc4ccc5cc(O)c(N6CC(=O)NS6(=O)=O)c(F)c5c4)CC3(F)F)cc21 (centres unmarked) tested on PTPN2 (Homo sapiens); recorded DC50 was 50 to 200 nM

Lab note: compound Cn1c(=O)n(C2CCC(=O)NC2=O)c2ccc(C3CCN([C@@H](CO)C(=O)Nc4ccc5c(F)c(N6CC(=O)NS6(=O)=O)c(O)cc5c4)CC3)cc21 (some centres unmarked) tested on PTPN2 (Homo sapiens); recorded DC50 was 10 to 50 nM
